Below is a list of entries, each paired with its recorded shrunken log2 fold change value.
# System: Escherichia coli TOP10;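 also: peptides expressed intracellularly from a pBAD plasmid library in pooled LB shake-flask culture, induced with 0.3% L-arabinose, DNA abundance read by NGS, three biological replicates, DESeq2 with apeglm shrinkage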
# Assay Details: shrunken log2 fold change of peptide-encoding DNA abundance (4.5 h post-induction vs induction); higher = less antimicrobial activity (less host growth inhibition)
# Measurement Parameters: time post-induction: 4.5 h; library: site-saturation at positions 5, 18, 19, 20
Metric: shrunken log2 fold change

RRIRPRPPRLPRPRPRPYDFPRP
-0.194
RRIRTRPPRLPRPRPRPSFSPRP
-0.262
RRIRHRPPRLPRPRPRPRCMPRP
-0.153
RRIRWRPPRLPRPRPRPEREPRP
0.295
RRIRPRPPRLPRPRPRPWMIPRP
-0.334
RRIRFRPPRLPRPRPRPCHRPRP
-0.113
RRIRFRPPRLPRPRPRPQQKPRP
0.0925
RRIRWRPPRLPRPRPRPHKEPRP
-0.0233
RRIRYRPPRLPRPRPRPNPTPRP
0.0161
RRIRDRPPRLPRPRPRPDDNPRP
0.153
RRIRRRPPRLPRPRPRPTWGPRP
0.42
RRIRLRPPRLPRPRPRPYPEPRP
-0.201
RRIRMRPPRLPRPRPRPAFSPRP
0.0185
RRIRMRPPRLPRPRPRPYPLPRP
-0.141
RRIRIRPPRLPRPRPRPCLNPRP
-0.0496

Cited source for all entries: the supplement of paper PMC9112550
